# Target entity: Pulmonary Myofibroblast
# Experiment description: FACS antibody binding to pulmonary myofibroblasts (HPF/MF)
# Parameters: species or system human
# Condition details: Table 11, 1994-01-C7 variants, FIG. 4B
Parameter: pEC50
Keep it numeric: pEC50 is minus log10 of the concentration in mol/L.

Asked: pEC50 for Antibody 58: 1994-01-C7 variant; VH SEQ ID NO: 31, VL SEQ ID NO: 37 (antibody, V domains shown) VH: QVQLVQSGAEVKKPGASVKVSCKASGYTFTSYGISWVRQAPGQGLEWMGWISAYNANVNYAQKLQGRVTMTTDTSTSTAYMELRSLRSDDTAAYYCARVTGITGTTIGPWGQGTMVTVSS VL: DIQMTQSPSSLSASVGDRVTITCRASQSISSYLNWYQQKPGKAPKLLIYDASSLESGVPSRFSGSGSGTEFTLTISSLQPDDFAVYYCQQYNNWPQTFGQGTKVEIK ?
Given back: 8.54
